Measured solution mAb binding, % of PRLR binding, listed per entry for reference.
# MEASURED TARGET: T1, human PRLR (Biacore antigen) (human, UniProt P16471 25-234, limits assumed)
# T1 construct: The construct injected over captured antibody is not described (a soluble form is likely); also called huPRLR
# T1 sequence: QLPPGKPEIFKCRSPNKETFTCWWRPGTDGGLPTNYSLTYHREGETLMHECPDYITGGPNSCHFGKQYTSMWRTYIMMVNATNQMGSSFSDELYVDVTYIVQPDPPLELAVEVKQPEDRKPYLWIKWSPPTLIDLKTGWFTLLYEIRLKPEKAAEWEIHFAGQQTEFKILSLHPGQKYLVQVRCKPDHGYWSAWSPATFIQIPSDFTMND
# MEASUREMENT NOTES: SPR simultaneous binding; PRLR held by surface mAb Ab48
# Method: Running buffer was HBS-EP+ (10 mM Hepes, pH7.4, 150 mM NaCl, 3 mM EDTA, 0.05% surfactant). Assay was performed at 12° C. using Biacore T200 and CM5 sensor chips with anti-human IgG (Pierce) amine-coupled in all 4 flow cells to ˜2000 RU. Separate test mAbs were captured in flowcells 2, 3 & 4 (flowcell 1 was reference, no test mAb). All 4 flowcells were then blocked by injection with isotype control mAb at 50 ug/ml. […]
MEASURED PROPERTY: solution mAb binding, % of PRLR binding (%)

BINDER: Ab21 (antibody, human IgG1, kappa, V domains shown, humanized from Ab6; G1; also called Ab1 HC.1a and Ab1 LC.2a) VH: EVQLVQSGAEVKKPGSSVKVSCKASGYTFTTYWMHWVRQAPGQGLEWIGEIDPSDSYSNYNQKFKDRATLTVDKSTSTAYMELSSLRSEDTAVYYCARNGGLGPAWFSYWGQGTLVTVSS VL: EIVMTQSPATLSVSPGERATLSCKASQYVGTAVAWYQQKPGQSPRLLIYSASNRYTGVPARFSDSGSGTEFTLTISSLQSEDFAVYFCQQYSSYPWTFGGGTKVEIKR
ENDPOINT VALUE: 1
--
BINDER: Ab48 (antibody, human IgG1, kappa, V domains shown, humanized from Ab8; G1; also called Ab3 HC.1a and Ab3 LC.1a) VH: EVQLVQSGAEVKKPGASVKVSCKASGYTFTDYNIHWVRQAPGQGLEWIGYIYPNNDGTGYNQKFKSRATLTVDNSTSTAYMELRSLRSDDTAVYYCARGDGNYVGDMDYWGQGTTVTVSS VL: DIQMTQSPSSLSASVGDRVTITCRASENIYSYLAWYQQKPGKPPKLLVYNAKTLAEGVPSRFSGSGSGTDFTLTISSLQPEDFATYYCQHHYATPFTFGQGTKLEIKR
ENDPOINT VALUE: -1
--
BINDER: Ab39 (antibody, human IgG1, kappa, V domains shown, humanized from Ab7; G1; also called Ab4 HC.1a and Ab4 LC.1a) VH: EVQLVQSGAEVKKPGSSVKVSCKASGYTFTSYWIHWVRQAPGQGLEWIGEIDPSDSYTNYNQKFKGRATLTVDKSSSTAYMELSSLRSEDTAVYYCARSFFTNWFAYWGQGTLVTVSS VL: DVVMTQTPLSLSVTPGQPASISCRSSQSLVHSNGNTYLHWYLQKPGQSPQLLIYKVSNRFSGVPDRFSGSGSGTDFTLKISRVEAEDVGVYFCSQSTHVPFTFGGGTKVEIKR
ENDPOINT VALUE: 2
--
BINDER: Ab30 (antibody, human IgG1, kappa, V domains shown, humanized from Ab5; G1; also called Ab2 HC.1a and Ab2 LC.1a) VH: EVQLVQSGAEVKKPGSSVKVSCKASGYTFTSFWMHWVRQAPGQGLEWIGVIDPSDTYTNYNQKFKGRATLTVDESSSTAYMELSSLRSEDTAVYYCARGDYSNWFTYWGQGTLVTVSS VL: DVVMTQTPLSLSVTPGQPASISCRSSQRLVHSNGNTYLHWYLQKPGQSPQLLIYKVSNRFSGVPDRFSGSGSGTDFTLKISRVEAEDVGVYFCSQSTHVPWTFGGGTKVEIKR
ENDPOINT VALUE: 6

From: patent US20170022281A1
